Kindly state pest or weed control at 200 ppm for each of the entries shown.
test system: Heliothis virescens; assay: Heliothis virescens (tobacco budworm) egg/artificial diet test; format: in vivo; details: 96 h, 200 ppm (concentration in well 18 ppm), eggs 0-24 h old on artificial diet, 4 days, egg mortality, larval mortality, growth regulation

[in] Supply reported pest or weed control at 200 ppm belonging to this compound: Cc1cc(NC(=O)c2ccnc(Cl)c2)c(C2CCN(Cc3ccc(-c4ccc(F)cc4)cc3)CC2)nc1Cl
[out] ≥ 80%

[in] Supply reported pest or weed control at 200 ppm belonging to this compound: O=C(Nc1cc(C(F)(F)F)c(Br)nc1C1CCN(Cc2ccc(-c3ccc(F)cc3)cc2)CC1)c1ccnc(Cl)c1
[out] ≥ 80%

[in] Supply reported pest or weed control at 200 ppm belonging to this compound: O=C(Nc1ccc(OC(F)F)nc1C1CCN(Cc2ccc(-c3ccc(F)cc3)cc2)CC1)c1ccnc(Cl)c1
[out] ≥ 80%

[in] Supply reported pest or weed control at 200 ppm belonging to this compound: O=C(Nc1ccc(C(F)(F)F)nc1C1CC[N+](O)(Cc2ccc(-c3ccc(F)cc3)cc2)CC1)c1ccnc(Cl)c1 (stereo not shown)
[out] ≥ 80%

[in] Supply reported pest or weed control at 200 ppm belonging to this compound: O=C(Nc1cc(Cl)c(OCC(F)(F)F)nc1C1CCN(Cc2ccc(-c3ccc(F)cc3)cc2)CC1)c1ccnc(Cl)c1
[out] ≥ 80%

[in] Supply reported pest or weed control at 200 ppm belonging to this compound: O=C(Nc1cc(C(F)(F)F)c(Cl)nc1C1CCN(Cc2ccc(-c3ccc(F)cc3)cc2)CC1)c1ccnc(Cl)c1
[out] ≥ 80%

[in] Supply reported pest or weed control at 200 ppm belonging to this compound: O=C(Nc1cc(F)c(Br)nc1C1CCN(Cc2ccc(-c3ccc(F)cc3)cc2)CC1)c1ccnc(Cl)c1
[out] ≥ 80%
